Reference source: patent US20080261994A1

Each entry below lists one item and its recorded pIC50 value.
- test.target: aggrecanase-1 (Homo sapiens, UniProt O75173)
- Sequence (O75173 213-837, species assumed): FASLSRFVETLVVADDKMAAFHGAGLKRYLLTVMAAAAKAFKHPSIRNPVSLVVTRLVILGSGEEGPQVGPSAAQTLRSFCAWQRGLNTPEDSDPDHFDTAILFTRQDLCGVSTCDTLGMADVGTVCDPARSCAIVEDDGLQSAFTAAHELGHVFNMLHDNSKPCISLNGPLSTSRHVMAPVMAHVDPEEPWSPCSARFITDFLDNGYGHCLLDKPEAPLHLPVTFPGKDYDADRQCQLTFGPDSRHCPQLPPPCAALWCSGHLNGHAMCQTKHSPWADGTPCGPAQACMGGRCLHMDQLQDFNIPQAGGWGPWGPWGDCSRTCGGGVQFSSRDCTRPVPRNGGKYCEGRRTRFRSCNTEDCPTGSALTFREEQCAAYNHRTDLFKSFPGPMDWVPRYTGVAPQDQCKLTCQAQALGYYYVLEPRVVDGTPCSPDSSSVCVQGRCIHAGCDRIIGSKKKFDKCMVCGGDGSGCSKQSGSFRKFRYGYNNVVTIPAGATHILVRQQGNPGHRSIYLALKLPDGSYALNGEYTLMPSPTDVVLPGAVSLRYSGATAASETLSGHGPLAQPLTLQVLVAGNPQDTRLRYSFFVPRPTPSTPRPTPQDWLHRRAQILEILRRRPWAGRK
- test.name: Aggrecanase-1 inhibitory action (Particle Assay, GAG release from aggrecan-containing polyacrylamide particles)
- Assay type: biochemical
- condition.description: Experimental Example 1; read-out: IC50 AG1
pIC50: −log10 of the molar value.

May I ask what pIC50 has been recorded for O=C1COCCN1CC1(c2ccccc2)CC1(NS(=O)(=O)c1ccc(-c2ccc(Cl)cc2)s1)C(=O)O (centres unmarked) [Example 2-400] ?
≤ 6.00

May I ask what pIC50 has been recorded for CC1[C@H](c2ccccc2)[C@]1(NS(=O)(=O)N1CCC(OCc2ccc(Cl)cc2Cl)C1)C(=O)O (some centres unmarked) [Example 2-553] ?
≤ 6.00

May I ask what pIC50 has been recorded for CC(C)CCN1CCN(S(=O)(=O)N[C@@]2(C(=O)O)C[C@@H]2c2ccccc2)CC1 [Example 2-511] ?
≤ 6.00

May I ask what pIC50 has been recorded for O=C(O)C1(NS(=O)(=O)c2ccc(-c3ccc(Cl)cc3)s2)C2Cc3ccccc3C21 (centres unmarked) [Example 2-431] ?
> 6.00

May I ask what pIC50 has been recorded for CC1[C@H](c2ccccc2)[C@]1(NS(=O)(=O)c1ccc(-n2cccn2)s1)C(=O)O (some centres unmarked) [Example 2-542] ?
> 6.00

May I ask what pIC50 has been recorded for COCc1cn2cc(S(=O)(=O)N[C@@]3(C(=O)O)C[C@]3(C)c3ccccc3)sc2n1 [Example 2-519] ?
≤ 6.00

May I ask what pIC50 has been recorded for COCc1cc(-c2ccc(S(=O)(=O)N[C@@]3(C(=O)O)C[C@]3(C)c3ccccc3)s2)no1 [Example 2-403] ?
> 6.00

May I ask what pIC50 has been recorded for O=C1OCCN1CC1(c2ccccc2)CC1(NS(=O)(=O)c1ccc(-c2ccc(Cl)cc2)s1)C(=O)O (centres unmarked) [Example 2-362] ?
> 6.00

----------
Each entry below lists one item and its recorded pIC50 value.
- test.target: aggrecanase-1 (Homo sapiens)
- test.name: Aggrecanase-1 inhibitory action (Particle Assay, GAG release from aggrecan-containing polyacrylamide particles)
- Type: biochemical
- condition.description: aggrecanase-1 inhibitory action; read-out: IC50 AG1 (Experimental Example 1)
pIC50: −log10 of the molar value.

Examples from the recorded data:
CN1CCN(C(=O)Cc2cccc(C3CC3(NS(=O)(=O)c3ccc(-c4ccc(Cl)cc4)s3)C(=O)O)c2)CC1 (stereo not drawn): > 7.00
O=C(O)[C@@]1(NS(=O)(=O)c2ccc(-c3ccc(Cl)cc3)s2)C[C@H]1c1ccccc1: > 6.00
O=C(O)[C@]1(NS(=O)(=O)/C=C/c2cccc(Cl)c2)C[C@@H]1c1ccccc1: ≤ 5.00
CC(C)(C)NCCOc1ccccc1C1CC1(NS(=O)(=O)c1ccc(-c2ccc(Cl)cc2)s1)C(=O)O (stereo not drawn): ≤ 6.00
CC1(C)CC1(NS(=O)(=O)c1ccc(-c2ccc(Cl)cc2)s1)C(=O)O (stereo not drawn): ≤ 6.00

Now consider a different compound.
May I ask what pIC50 has been recorded for O=C(O)C1(NS(=O)(=O)N2CCC(Oc3ccc(F)cc3)CC2)CC1c1ccccc1 (stereo not drawn) ?
≤ 5.00

----------
- test.target: MMP-1 (Homo sapiens)
- Sequence (P03956 100-469, species assumed): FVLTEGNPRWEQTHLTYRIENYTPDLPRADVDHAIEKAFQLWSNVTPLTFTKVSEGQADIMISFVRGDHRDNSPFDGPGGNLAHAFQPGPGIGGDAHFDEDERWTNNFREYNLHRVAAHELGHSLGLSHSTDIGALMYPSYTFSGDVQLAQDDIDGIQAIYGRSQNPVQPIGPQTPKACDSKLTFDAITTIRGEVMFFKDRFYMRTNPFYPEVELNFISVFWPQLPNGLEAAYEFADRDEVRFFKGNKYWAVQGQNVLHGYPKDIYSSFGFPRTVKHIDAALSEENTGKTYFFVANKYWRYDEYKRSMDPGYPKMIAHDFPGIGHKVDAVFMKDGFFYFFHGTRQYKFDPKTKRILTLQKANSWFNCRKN
- test.name: MMP-1 inhibitory action (Type I collagen Activity Measurement kit, FITC-labeled collagen type I)
- Type: biochemical
- condition.description: Experimental Example 2; read-out: IC50 MMP1
assay.metric: IC50

Examples from the recorded data:
O=C(NCC1(c2ccccc2)CC1(NS(=O)(=O)c1ccc(-c2ccc(Cl)cc2)s1)C(=O)O)C1CC1 (stereo not shown): ≥ 1 µM
C[C@]1(c2ccccc2)C[C@@]1(NS(=O)(=O)c1ccc(-c2cccc(NS(C)(=O)=O)c2)s1)C(=O)O: ≥ 10 µM
O=C(O)C1(NS(=O)(=O)c2ccc(OCc3ccc(Cl)cc3Cl)cc2)C2Cc3ccccc3C21 (stereo not shown): ≥ 10 µM
O=C(O)[C@]1(NS(=O)(=O)c2ccc(-n3cc(Br)cn3)s2)C[C@@H]1c1ccccc1: ≥ 10 µM
CC1[C@H](c2ccccc2)[C@]1(NS(=O)(=O)N1Cc2ccc(Br)cc2C1)C(=O)O (stereo partly shown): ≥ 1 µM

May I ask what IC50 has been recorded for CC1(c2cccc(S(C)(=O)=O)c2)CC1(NS(=O)(=O)c1ccc(-c2cc(C(F)(F)F)on2)s1)C(=O)O (stereo not shown) ?
< 1 µM

May I ask what IC50 has been recorded for C[C@]1(c2ccccc2)C[C@@]1(NS(=O)(=O)c1ccc(-c2ccc(Cl)cc2F)s1)C(=O)O ?
< 1 µM
